Provenance of the data: ChEMBL document CHEMBL4371067

For each entry below, report its IC50 value.
- STUDY TARGET: UniProtKB Q12809
- Sequence (Q12809 whole entry): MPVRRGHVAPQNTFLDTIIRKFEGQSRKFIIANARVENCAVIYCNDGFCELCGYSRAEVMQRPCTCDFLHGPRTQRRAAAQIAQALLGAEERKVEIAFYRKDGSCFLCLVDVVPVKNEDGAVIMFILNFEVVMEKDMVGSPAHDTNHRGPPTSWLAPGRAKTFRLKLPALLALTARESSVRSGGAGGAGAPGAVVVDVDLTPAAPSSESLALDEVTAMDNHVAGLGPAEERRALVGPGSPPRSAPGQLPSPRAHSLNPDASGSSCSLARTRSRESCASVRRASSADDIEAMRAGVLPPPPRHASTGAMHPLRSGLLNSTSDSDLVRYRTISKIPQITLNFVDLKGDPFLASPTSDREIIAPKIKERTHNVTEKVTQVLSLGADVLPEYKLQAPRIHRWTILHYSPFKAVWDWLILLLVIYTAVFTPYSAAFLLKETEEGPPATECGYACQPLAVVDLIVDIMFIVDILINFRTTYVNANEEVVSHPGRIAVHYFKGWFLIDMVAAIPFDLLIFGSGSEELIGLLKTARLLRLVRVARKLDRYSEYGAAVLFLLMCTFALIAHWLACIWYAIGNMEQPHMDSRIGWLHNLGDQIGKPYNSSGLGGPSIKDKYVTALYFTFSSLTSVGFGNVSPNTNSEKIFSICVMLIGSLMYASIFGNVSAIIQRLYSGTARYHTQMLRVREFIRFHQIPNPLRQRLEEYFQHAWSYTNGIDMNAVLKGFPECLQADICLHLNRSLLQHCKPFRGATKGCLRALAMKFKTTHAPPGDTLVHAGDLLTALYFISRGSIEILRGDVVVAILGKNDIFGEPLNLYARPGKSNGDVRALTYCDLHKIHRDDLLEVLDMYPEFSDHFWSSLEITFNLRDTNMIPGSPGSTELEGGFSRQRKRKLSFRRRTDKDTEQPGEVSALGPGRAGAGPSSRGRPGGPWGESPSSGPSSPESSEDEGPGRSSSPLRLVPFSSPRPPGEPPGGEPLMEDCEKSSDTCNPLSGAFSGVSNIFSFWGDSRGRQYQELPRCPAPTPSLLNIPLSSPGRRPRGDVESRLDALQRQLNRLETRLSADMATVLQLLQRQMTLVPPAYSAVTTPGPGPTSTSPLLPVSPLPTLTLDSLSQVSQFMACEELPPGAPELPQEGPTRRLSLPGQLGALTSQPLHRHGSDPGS
# number only, unit µM dropped from output

Exercise: Data request, read-out IC50, for COCCC#Cc1c(Cl)c2c(Cl)cc(C(N)=O)nc2n1[C@H]1CCCNC1
Solution: 3

Exercise: // query IC50 value for entry CC1(C#Cc2c(Cl)c3c(Cl)cc(C(N)=O)nc3n2[C@H]2CCCNC2)COC1
Solution: 3

Exercise: Need IC50 of CC(C)(C#N)CC#Cc1c(Cl)c2c(Cl)cc(C(N)=O)nc2n1[C@H]1CCCNC1 , thanks.
Solution: 3

Exercise: Which IC50 value belongs to COC(C)(C)CC#Cc1c(Cl)c2c(Cl)cc(C(N)=O)nc2n1[C@H]1CCCNC1 ?
Solution: 4

Exercise: Find the recorded IC50 belonging to COCC(C)(C)C#Cc1c(Cl)c2c(Cl)cc(C(N)=O)nc2n1[C@H]1CCCNC1 and report it.
Solution: 1.1

Exercise: What measured IC50 goes with CC1(CC#Cc2c(Cl)c3c(Cl)cc(C(N)=O)nc3n2[C@H]2CCCNC2)COC1 ?
Solution: 5
